Recorded emission maximum for the following compounds
experiment: solvent given as SMILES; conditions: in c1ccccc1

Measured emission maximum of `O=c1oc2ccccc2nc1-c1ccccc1` : 450 nm

Kindly note the recorded emission maximum for `CC(=O)c1ccc(-c2nc3ccc(N(C)C)cc3s2)cc1` , which is 487.85 nm

Recorded result, `CC1(C)CC(/C=C/c2ccc(-n3ccnc3)cc2)=CC(=C(C#N)C#N)C1` , emission maximum: 511 nm

Recorded result, COc1ccc(N2C(=O)c3ccccc3NC2C(C)(C)C)cc1 (stereo not given) , emission maximum: 400 nm

Further cases:
Summary for this compound, `Cc1nc2c(ccc3ccccc32)oc1=O` : emission maximum is 424 nm

Lab note: measured emission maximum of `Cc1cc(C(F)(F)F)nc2c1ccc1nc(-c3ccc(Cl)cc3)cn12` was 455 nm

Reported emission maximum ( CCCCC(CC)Cn1c2ccc(C(=C(C#N)C#N)c3ccccc3)cc2c2c(-c3ccc(Br)cc3)c3c(c(-c4ccc(Br)cc4)c21)c1cc(C(=C(C#N)C#N)c2ccccc2)ccc1n3CC(CC)CCCC (stereo not given) ) = 543 nm

Given item `CCC1(CC)c2cc(C=C(C#N)C#N)ccc2-c2ccc(N(C)C)cc21` , the value recorded as its emission maximum is 560 nm

Record `Cc1cc(-c2ccccc2)nc2c1ccc1nc(-c3ccccc3)cn12` , field emission maximum: 451 nm

So, `CCC1=C(C)C(=O)n2c1cc1c(C)c(CCC(=O)OC)c(C)n1c2=O` ? Its emission maximum was 470 nm

----------
test: solvent given as SMILES; details: in CC#N
MEASUREMENT NAME: emission maximum

Worked set:
Entry `COc1nc(Nc2cc3ccc4cccc5ccc(c2)c3c45)nc(OC)n1` ; emission maximum = 393 nm

Item: `COC(=O)CC1(C(=O)OC)Oc2c(c(C(C)=O)c3c(c2C(C)=O)OCO3)O1` | emission maximum: 532 nm

New cases:
Looking up `c1ccc(Nc2nc(Nc3ccccc3)nc(Nc3cc4ccc5cccc6ccc(c3)c4c56)n2)cc1` , I see its emission maximum listed as 398 nm

The compound `c1ccc(-c2nc(-c3ccccc3)nc(-c3cc(-n4c5ccccc5c5ncccc54)c(-n4c5ccccc5c5ccccc54)c(-n4c5ccccc5c5ncccc54)c3)n2)cc1` showed emission maximum equal to 525.35 nm

----------
assay: solvent given as SMILES; settings: in CC#N
API: label(entry) gives yes if the entry's emission maximum is strictly smaller than 500 nm; on equality or larger values it gives no.

Solved entries:
Hello, I'm reviewing records and need to know if emission maximum of `COc1ccc(-c2nc3ccccc3nc2-c2ccc(OC)cc2)cc1` is below 500 nm. Could you check?
yes

Dear colleague, could you confirm whether emission maximum of `CCN1c2ccc(-c3cc(C(F)(F)F)[nH]n3)cc2Sc2cc(-c3cc(C(F)(F)F)[nH]n3)ccc21` falls below 500 nm? Thanks.
yes

Is emission maximum of `O=C1c2ccccc2-c2c(-c3cc(Br)ccc3O)[nH]c(=O)n21` strictly below 500 nm?
yes

I'd appreciate it if you could check whether `COc1ccc2c(c1)c1c(c3cc(OC)ccc32)=[N+]2C(=C(c3c(C)cc(C)cc3C)c3cc4c5cc(OC)ccc5c5ccc(OC)cc5c4n3[B-]2(F)F)C=1` has emission maximum smaller than 500 nm.
no

I wonder whether `N#Cc1ccc2cc[nH]c2c1` has emission maximum below 500 nm. Can you tell?
yes

More entries:
Lab note: confirm whether the reported emission maximum for this compound is below 500 nm, equality not counting. compound: `N#C/C=C/c1ccc2ccc3cccc4ccc1c2c34`
yes

is_below(emission maximum, 500 nm) for O=P1(c2ccccc2)C2=C(c3ccccc31)C(c1ccccc1)(c1ccccc1)c1cc(N(c3ccccc3)c3ccccc3)ccc12 (stereo not given) ?
no

Dear reviewer, please state whether `C1=Nc2cccc3cccc(c23)N1` has emission maximum strictly beneath 500 nm.
yes

is_below(emission maximum, 500 nm) for `C1=C(c2ccc(-c3cccs3)s2)CCCC1` ?
yes
